molecular target: human (hACC2) (Homo sapiens); experiment: In vitro ACC inhibition assay (ADP-Glo), hACC2; assay type: biochemical; details: Table 2b, additional results, 5 nM ACC2, 20 μM ATP, 20 μM acetyl-CoA
Sequence (O00763 whole entry): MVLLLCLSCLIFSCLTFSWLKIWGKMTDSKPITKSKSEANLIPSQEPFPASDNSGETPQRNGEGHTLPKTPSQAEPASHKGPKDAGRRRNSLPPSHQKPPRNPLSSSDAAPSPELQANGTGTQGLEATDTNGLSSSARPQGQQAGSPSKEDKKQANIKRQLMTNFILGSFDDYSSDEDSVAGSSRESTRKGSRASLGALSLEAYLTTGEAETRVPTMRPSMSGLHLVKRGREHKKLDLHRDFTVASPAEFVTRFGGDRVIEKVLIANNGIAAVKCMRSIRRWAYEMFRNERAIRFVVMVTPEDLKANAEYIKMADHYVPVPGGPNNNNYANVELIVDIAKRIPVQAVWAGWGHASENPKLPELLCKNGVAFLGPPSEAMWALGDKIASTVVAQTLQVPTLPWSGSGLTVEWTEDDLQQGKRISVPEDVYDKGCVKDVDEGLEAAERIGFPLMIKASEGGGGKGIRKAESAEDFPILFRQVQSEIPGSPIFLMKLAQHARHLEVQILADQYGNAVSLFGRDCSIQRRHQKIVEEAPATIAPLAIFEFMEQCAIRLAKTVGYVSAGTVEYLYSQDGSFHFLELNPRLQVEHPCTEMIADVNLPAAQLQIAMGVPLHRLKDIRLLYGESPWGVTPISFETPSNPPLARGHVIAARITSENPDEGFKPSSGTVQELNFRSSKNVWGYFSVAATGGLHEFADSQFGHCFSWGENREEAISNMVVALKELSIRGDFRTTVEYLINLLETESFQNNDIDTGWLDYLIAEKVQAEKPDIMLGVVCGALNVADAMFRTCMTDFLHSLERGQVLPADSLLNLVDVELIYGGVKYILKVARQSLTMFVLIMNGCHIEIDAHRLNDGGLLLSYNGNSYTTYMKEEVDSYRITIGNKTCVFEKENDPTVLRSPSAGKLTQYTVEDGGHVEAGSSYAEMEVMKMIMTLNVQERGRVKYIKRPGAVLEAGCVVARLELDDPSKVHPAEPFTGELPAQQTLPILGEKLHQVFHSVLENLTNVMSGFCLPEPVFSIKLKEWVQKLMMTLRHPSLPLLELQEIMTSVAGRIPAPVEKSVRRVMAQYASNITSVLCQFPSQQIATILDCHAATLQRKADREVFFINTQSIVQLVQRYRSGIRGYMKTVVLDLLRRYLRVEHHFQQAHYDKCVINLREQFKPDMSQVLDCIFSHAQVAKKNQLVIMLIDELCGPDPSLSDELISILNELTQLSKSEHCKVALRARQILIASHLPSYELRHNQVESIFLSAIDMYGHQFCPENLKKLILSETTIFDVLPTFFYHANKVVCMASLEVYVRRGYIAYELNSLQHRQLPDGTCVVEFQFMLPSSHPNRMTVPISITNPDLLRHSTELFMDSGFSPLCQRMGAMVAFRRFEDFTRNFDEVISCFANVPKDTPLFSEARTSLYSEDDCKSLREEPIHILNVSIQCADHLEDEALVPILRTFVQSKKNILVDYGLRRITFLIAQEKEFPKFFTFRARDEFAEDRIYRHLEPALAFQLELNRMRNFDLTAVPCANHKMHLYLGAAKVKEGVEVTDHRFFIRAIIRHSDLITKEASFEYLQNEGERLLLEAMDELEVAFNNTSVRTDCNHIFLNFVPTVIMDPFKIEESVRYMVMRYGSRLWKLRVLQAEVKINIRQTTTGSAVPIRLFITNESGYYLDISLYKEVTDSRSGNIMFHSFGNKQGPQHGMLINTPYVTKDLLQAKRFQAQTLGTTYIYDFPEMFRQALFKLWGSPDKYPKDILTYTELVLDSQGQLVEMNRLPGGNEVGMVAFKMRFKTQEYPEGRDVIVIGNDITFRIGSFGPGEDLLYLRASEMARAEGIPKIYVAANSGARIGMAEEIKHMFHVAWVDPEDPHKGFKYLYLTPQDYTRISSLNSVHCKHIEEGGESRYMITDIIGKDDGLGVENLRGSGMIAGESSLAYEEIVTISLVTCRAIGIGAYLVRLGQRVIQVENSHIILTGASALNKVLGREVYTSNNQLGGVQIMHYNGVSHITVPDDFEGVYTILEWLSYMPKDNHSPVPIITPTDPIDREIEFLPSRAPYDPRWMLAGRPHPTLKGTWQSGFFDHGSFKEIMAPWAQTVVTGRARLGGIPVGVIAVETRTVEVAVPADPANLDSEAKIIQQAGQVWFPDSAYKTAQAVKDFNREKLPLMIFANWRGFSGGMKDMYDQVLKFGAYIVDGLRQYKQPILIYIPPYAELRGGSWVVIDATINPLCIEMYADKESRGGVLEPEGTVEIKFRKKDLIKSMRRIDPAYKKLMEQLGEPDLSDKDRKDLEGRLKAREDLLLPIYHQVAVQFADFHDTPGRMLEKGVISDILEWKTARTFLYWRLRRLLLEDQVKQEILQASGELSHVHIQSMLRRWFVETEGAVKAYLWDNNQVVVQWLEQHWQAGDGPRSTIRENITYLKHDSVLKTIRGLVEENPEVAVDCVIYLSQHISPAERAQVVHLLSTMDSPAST
Form field: IC50 (one value per entry).

| query.smiles | IC50 |
| --- | --- |
| COc1ccc(F)cc1[C@H](Cn1c(=O)n(C(C)(C)C(=O)NC(C)C)c(=O)c2c(C)c(-n3nccn3)sc21)OCCS(C)(=O)=O | 10 to 40 nM |
| COc1ccc(F)cc1[C@H](Cn1c(=O)n(C(C)(C)C(=O)NC(C)C)c(=O)c2c(C)c(-n3nccn3)sc21)OC[C@H](C)C#N | 1 to 5 nM |
| COc1ccc(F)cc1[C@H](Cn1c(=O)n([C@@H](C)C(=O)N(C)C(C)C)c(=O)c2c(C)c(-n3nccn3)sc21)OCCC#N | 5 to 10 nM |
| COc1ccc(F)cc1[C@H](Cn1c(=O)n(C(C)(C)C(=O)O)c(=O)c2c(C)c(-n3nccn3)sc21)OC(C)C | 5 to 10 nM |
| COc1ccccc1[C@@H](O)Cn1c(=O)n(C(C)(C)C(=O)N2CCCC2)c(=O)c2c(C)c(-n3nccn3)sc21 | 10 to 40 nM |
| CCc1ccc(F)cc1[C@H](Cn1c(=O)n(C(C)(C)C(=O)NC(C)C)c(=O)c2c(C)c(-n3nccn3)sc21)OCCO | 1 to 5 nM |
| COCCO[C@@H](Cn1c(=O)n([C@H](C)C(=O)NC(C)C)c(=O)c2c(C)c(-n3nccn3)sc21)c1cc(F)ccc1OC | 5 to 10 nM |
| COc1ccc(F)cc1[C@H](Cn1c(=O)n(C(C)(C)C(=O)NC(C)C)c(=O)c2c(C)c(-n3nccn3)sc21)OCC(C)(C)O | 10 to 40 nM |
| Cc1c(-n2nccn2)sc2c1c(=O)n(C(C)(C)C(=O)NC(C)C)c(=O)n2C[C@H](OCCO)c1cc(F)ccc1OCc1ccccc1 | 10 to 40 nM |
| COc1ccc(F)cc1[C@H](Cn1c(=O)n([C@@H](C)C(=O)N2CCCC2)c(=O)c2c(C)c(-n3nccn3)sc21)OCC(C)(C)O | 10 to 40 nM |
| COCCO[C@@H](Cn1c(=O)n(C(C)(C)C(=O)NC2CCCCC2)c(=O)c2c(C)c(-n3nccn3)sc21)c1cc(F)ccc1OC | 10 to 40 nM |
| COc1ccc(F)cc1[C@H](Cn1c(=O)n(C(C)(C)C(=O)NC(C)C)c(=O)c2c(C)c(-n3nccn3)sc21)OCCC(C)=O | 1 to 5 nM |
| COc1ccc(F)cc1[C@H](Cn1c(=O)n([C@H](C)C(=O)NC(C)C)c(=O)c2c(C)c(-n3nccn3)sc21)OCCO | 5 to 10 nM |
| COc1ccccc1[C@H](Cn1c(=O)n(C(C)(C)C(=O)N2CC(O)C2)c(=O)c2c(C)c(-n3nccn3)sc21)OC1CCOCC1 | 10 to 40 nM |
| COc1ccc(F)cc1[C@](C)(Cn1c(=O)n(C(C)(C)C(=O)NC(C)C)c(=O)c2c(C)c(-n3nccn3)sc21)OCCC#N | > 40 nM |
| COc1ccc(F)cc1[C@H](Cn1c(=O)n(C(C)(C)C(=O)NC(C)C)c(=O)c2c(C)c(-n3nccn3)sc21)OC1CCOCC1 | 5 to 10 nM |
| COc1ccccc1[C@H](Cn1c(=O)n(C(C)(C)C(=O)NC2CCCCC2)c(=O)c2c(C)c(-n3nccn3)sc21)OC1CCOCC1 | 5 to 10 nM |
| COCCO[C@@H](Cn1c(=O)n(CC(=O)NC(C)C)c(=O)c2c(C)c(-n3nccn3)sc21)c1cc(F)ccc1OC | > 40 nM |
| COc1ccc(F)cc1[C@H](Cn1c(=O)n([C@@H](C)C(=O)NC(C)C)c(=O)c2c(C)c(-n3nccn3)sc21)OC(C)C | 5 to 10 nM |
| COc1ccc(F)cc1[C@H](Cn1c(=O)n([C@H](C)C(N)=O)c(=O)c2c(C)c(-n3nccn3)sc21)OCC(C)(C)O | 10 to 40 nM |
| COc1ccccc1[C@H](Cn1c(=O)n(C(C)(C)C(N)=O)c(=O)c2c(C)c(-n3nccn3)sc21)OC1CCOCC1 | 1 to 5 nM |
| Cc1c(-n2nccn2)sc2c1c(=O)n(C(C)(C)C(=O)NC(C)C)c(=O)n2C[C@H](O[C@H]1CC[C@@H](O)CC1)c1cc(F)ccc1OCC#N | 5 to 10 nM |
| COc1ccc(F)cc1[C@H](Cn1c(=O)n(C(C)(C)C(=O)N2CCCC2)c(=O)c2c(C)c(-n3nccn3)sc21)OCC(C)C | 10 to 40 nM |
| COc1ccc(F)cc1[C@H](Cn1c(=O)n(C(C)(C)C(=O)O)c(=O)c2c(C)c(-n3nccn3)sc21)O[C@H]1CC[C@@H](C#N)CC1 | 10 to 40 nM |
